Overview of reported growth AUC across a group of compounds:
Test system: Escherichia coli IAI1
Test: growth AUC relative to DMSO control (median of replicates) (fraction); higher = more growth (less inhibition), active = hit call of the paper
Details: 20 µM; 24 h
No unit in the answer, only the number.

Past entries and their recorded results:
CCOP(=O)(NC(C)C)Oc1ccc(S(C)=O)c(C)c1 (centres undefined) ... 1.04
CN(C)C(CSS(=O)(=O)c1ccccc1)CSS(=O)(=O)c1ccccc1 ... 1.01
COP(=O)(OC)OC(Br)C(Cl)(Cl)Br (centres undefined) ... 1.02

Query: Return value of growth AUC for input COC(=O)C(C)N(C(=O)c1ccco1)c1c(C)cccc1C (centres undefined) , no commentary.
Response: 0.981

Query: Please give measured growth AUC of the following entry: COP(N)(=O)SC (centres undefined)
Response: 1.02

---

System: Akkermansia muciniphila
Assay: growth AUC relative to DMSO control (median of replicates) (fraction); higher = more growth (less inhibition), active = hit call of the paper
Settings: 20 µM; 24 h
measured parameter: growth AUC
Reply: number alone, nothing else.

Examples from the recorded data:
CCOP(=O)(NC(C)C)Oc1ccc(SC)c(C)c1 (centres undefined) ... 1.19
COP(=S)(Oc1cc(Cl)c(Br)cc1Cl)c1ccccc1 (centres undefined) ... 0.925
C=CCOC(Cn1ccnc1)c1ccc(Cl)cc1Cl.O=S(=O)(O)O (centres undefined) ... 0.744
C=C/C=C/CC1=C(C)C(OC(=O)[C@@H]2C(/C=C(\C)C(=O)OC)C2(C)C)CC1=O.C=C/C=C/CC1=C(C)[C@@H](OC(=O)[C@@H]2C(C=C(C)C)C2(C)C)CC1=O (some centres undefined) ... 0.901
O=c1oc2ccccc2c(O)c1C(CC(O)c1ccc(-c2ccc(Br)cc2)cc1)c1ccccc1 (centres undefined) ... 1
ClC1=C(Cl)C2(Cl)C(CBr)CC1(Cl)C2(Cl)Cl (centres undefined) ... 1.02
CNC(=O)Oc1cc(C)c(N(C)C)c(C)c1 ... 1.02
O=C(O)COc1ccc(Cl)cc1Cl ... 0.866

Query: Hello, please tell me recorded growth AUC for this one: N#Cc1nn(-c2c(Cl)cc(C(F)(F)F)cc2Cl)c(N)c1C(F)(F)F
Response: 1.08

Query: Please give measured growth AUC of the following entry: CSc1nc(NC(C)C)nc(NC(C)C)n1
Response: 0.876

---

System: Bacteroides thetaiotaomicron
Test: growth AUC relative to DMSO control (median of replicates) (fraction); higher = more growth (less inhibition), active = hit call of the paper
Conditions: 20 µM; 24 h
Response key: YES means growth AUC >= 1; NO means growth AUC < 1.

O=[N+]([O-])c1ccc2ccc3cccc4ccc1c2c34 ... NO
CC1(C)CCC(Cc2ccc(Cl)cc2)C1(O)Cn1cncn1 (stereo not drawn) ... NO
O=P(OC(CCl)CCl)(OC(CCl)CCl)OC(CCl)CCl ... NO
O=C1OCC2C1C1(Cl)C(Cl)=C(Cl)C2(Cl)C1(Cl)Cl (stereo not drawn) ... YES
c1ccc2c(c1)-c1cccc3cccc-2c13 ... NO

Query: Form field: growth AUC at least 1? Entry: O=C(Nc1ccccc1-c1ccc(Cl)cc1)c1cccnc1Cl
Response: NO

Query: Reported growth AUC reaches at least 1 for CCC(CC)Nc1c([N+](=O)[O-])cc(C)c(C)c1[N+](=O)[O-] ?
Response: NO

Query: Determine whether this molecule has growth AUC no lower than 1: CSc1nc(NC(C)C)nc(NC(C)C)n1
Response: NO

Query: Is growth AUC at least 1? Consider C=C/C=C/CC1=C(C)C(OC(=O)[C@@H]2C(/C=C(\C)C(=O)OC)C2(C)C)CC1=O.C=C/C=C/CC1=C(C)[C@@H](OC(=O)[C@@H]2C(C=C(C)C)C2(C)C)CC1=O (stereo partly drawn)
Response: NO

Query: Threshold query (growth AUC >= 1) on COC(=O)Nc1nc2ccccc2[nH]1
Response: YES

Query: Decide: is the reported value of growth AUC for Cc1cc(Cl)ccc1O equal to or greater than 1?
Response: YES

Query: Please tell me: is the molecule CCCOCCN(C(=O)CCl)c1c(CC)cccc1CC at or over 1 in terms of growth AUC?
Response: NO

---

Overview of recorded growth AUC for various compounds
Test system: Streptococcus salivarius
Test: growth AUC relative to DMSO control (median of replicates) (fraction); higher = more growth (less inhibition), active = hit call of the paper
Conditions: 20 µM; 24 h
Enter a number only.

Observe how each entry below is paired with its result.
O=C(O)COc1nc(Cl)c(Cl)cc1Cl ... 1.01
O=C(NC(=O)c1c(F)cccc1F)Nc1ccc(CO/N=C(\c2ccc(Cl)cc2)C2CC2)cc1 ... 0.996
O=S1OCC2C(CO1)C1(Cl)C(Cl)=C(Cl)C2(Cl)C1(Cl)Cl (centres undefined) ... 0.977

Consider now this further compound.
Query: Complete the entry with growth AUC for ClC1C(Cl)C(Cl)C(Cl)C(Cl)C1Cl (mixture of isomers)
Response: 0.974

---

System: Akkermansia muciniphila
Test: growth AUC relative to DMSO control (median of replicates) (fraction); higher = more growth (less inhibition), active = hit call of the paper
Details: 20 µM; 24 h
A collection of compounds and their measured growth AUC

Check out these entries, answers already filled in.
O=C1C2(Cl)C3(Cl)C4(Cl)C(Cl)(Cl)C5(Cl)C3(Cl)C1(Cl)C5(Cl)C24Cl (centres undefined) ... 0.849 (inactive)
COS(=O)(=O)[O-].Cn1c(-c2ccccc2)cc(-c2ccccc2)[n+]1C ... 0.936 (inactive)
Oc1ccc(Cc2ccc(O)cc2)cc1 ... 0.954 (inactive)

Query: Please report growth AUC with Akkermansia muciniphila for item CC1(C)C(C=C(Cl)Cl)C1C(=O)OC(C#N)c1cccc(Oc2ccccc2)c1 (centres undefined) .
Response: 1.06 (inactive)

---

System: Parabacteroides distasonis
Experiment: growth AUC relative to DMSO control (median of replicates) (fraction); higher = more growth (less inhibition), active = hit call of the paper
Details: 20 µM; 24 h
measured parameter: growth AUC
Simply state the number, no unit and no words.

Solved entries:
ClC1=C(Cl)C2(Cl)C3COCC3C1(Cl)C2(Cl)Cl (configuration not stated) ... 0.987
CCNc1nc(Cl)nc(NC(C)(C)C)n1 ... 0.992
CC1(C)[C@H](C(=O)O[C@H](C#N)c2cccc(Oc3ccccc3)c2)[C@@H]1/C=C\C(=O)OC(C(F)(F)F)C(F)(F)F ... 0.994

Query: Find the measured growth AUC of CCC/C(=N\OCC)C1=C(O)CC(CC(C)SCC)CC1=O (configuration not stated) and report it.
Response: 0.991

Query: Give growth AUC for CC(C)Nc1nc(Cl)nc(NC(C)C)n1
Response: 1.02

Query: Give the reported growth AUC for this molecule. Cc1cccc2sc3nncn3c12
Response: 0.991

Query: Read the entry CCCN(CCC)c1c([N+](=O)[O-])cc(S(N)(=O)=O)cc1[N+](=O)[O-] and write its reported growth AUC.
Response: 0.971

---

System: Parabacteroides distasonis
Test: growth AUC relative to DMSO control (median of replicates) (fraction); higher = more growth (less inhibition), active = hit call of the paper
Conditions: 20 µM; 24 h
Recorded growth AUC, one value per entry.
Give only the figure.

Look over these answered cases.
CC1(C)C(C=C(Cl)Cl)C1C(=O)OCc1cccc(Oc2ccccc2)c1 (mixture of isomers) ... 1
CCC(CC)Nc1c([N+](=O)[O-])cc(C)c(C)c1[N+](=O)[O-] ... 0.974
CCOC(=O)OC1=C(c2cc(C)ccc2C)C(=O)NC12CCC(OC)CC2 (stereo not drawn) ... 0.981
O=C1C(Cl)=C(Cl)C(=O)C(Cl)=C1Cl ... 1.04
CC(C)c1ccc(NC(=O)N(C)C)cc1 ... 0.998

Query: Retrieve growth AUC measured for Clc1nc(Cl)nc(Nc2ccccc2Cl)n1 and print it.
Response: 1.04

Query: Provide growth AUC value for the following compound: Oc1ccc(Cl)cc1Cc1cc(Cl)ccc1O
Response: 0.0176

Query: Retrieve growth AUC measured for COP(=S)(OC)SC(CC(=O)O)C(=O)O (stereo not drawn) and print it.
Response: 0.956

Query: Output measured growth AUC for this item: CC(C)C1(C)N=C(c2nc3ccccc3cc2C(=O)O)NC1=O (stereo not drawn)
Response: 0.986

Query: Provide growth AUC value for the following compound: COP(N)(=S)Oc1ccccc1C(=O)OC(C)C (stereo not drawn)
Response: 0.877

Query: Look up and report measured growth AUC for this entry: CCS(=O)(=O)c1nc2ccccn2c1S(=O)(=O)NC(=O)Nc1nc(OC)cc(OC)n1
Response: 1.02

Query: For C[C@@H](Oc1ccc(Oc2cnc3cc(Cl)ccc3n2)cc1)C(=O)O , write its growth AUC.
Response: 0.983

Query: Determine its reported growth AUC: CC1(C)C(C=C(Cl)Cl)C1C(=O)OC(C#N)c1cccc(Oc2ccccc2)c1 (mixture of isomers)
Response: 0.982
